Target: T1, huNav1.7α + β1-β2-β3 (human, UniProt Q15858 1-1988; A5A6L6 19-218; O60939 30-215; Q2KI11 23-215)
T1 construct: also called huNav1.7-beta1-beta2-beta3; huNav1.7-β1-β2-β3
Test: binding FACS, CHO FlpIn
Procedure: Binding of the ISVDs to cell-expressed Nav1.7α was detected via murine anti-Flag (Sigma, catalog #F1804). Briefly, cells were resuspended in FACS buffer (PBS, 10% FBS, NaN₃) and transferred to a 96-well V-bottom plate at 1×10^5 cells/well. Purified FLAG3-tagged ISVD was diluted in FACS buffer and added to the cells for 30 minutes at 4° C. […] Prior to the read-out, the samples were resuspended in 1 μg/mL propidium iodide (Sigma, catalog #P4170) to exclude dead cells. […]
READOUT LABEL: Bmax (%)

[[record]]
binder = "F010302335 (VHH) VHH: EVQLVESGGGVVQPGGSLRLSCAASSRQFIRDVFTGWYRRAPGKQRELVARIYESGNTQYADSAKGRFTISRDNAKKTVYLQMNSLRPEDTALYYCLFSGTISTGREYRSGDYWGQGTLVTVSS"
reported = 100

[[record]]
binder = "F010301868 (VHH, also called F0103464B09(L11V, S68T, T79Y, R81Q, S82aN, N82bS, K83R, G88A, V89L)) VHH: EVQLVESGGGVVQPGGSLRLSCATTSRAFIRDVFTGWYRRVPGKERELVARIYNGGNTNYADFAKGRFTISRDNAKKMVYLQMNSLRPEDTALYYCLFSGTINTGREYRSGDYWGQGTLVTVSS"
reported = 98

[[record]]
binder = "F010301875 (VHH, also called F0103464B09(L11V, F62S, S68T, T79Y, R81Q, S82aN, N82bS, K83R, G88A, V89L)) VHH: EVQLVESGGGVVQPGGSLRLSCATTSRAFIRDVFTGWYRRVPGKERELVARIYNGGNTNYADSAKGRFTISRDNAKKMVYLQMNSLRPEDTALYYCLFSGTINTGREYRSGDYWGQGTLVTVSS"
reported = 100

[[record]]
binder = "F010302356 (VHH) VHH: EVQLVESGGGVVQPGGSLRLSCAASHRAFIRDLFTGWYRRAPGKQRELVARIYESGNTNYADSVKGRFTISRDNAKKTVYLQMNSLRPEDTALYYCLFSGTISTGREYRSGDYWGQGTLVTVSS"
reported = 100

[[record]]
binder = "F010301936 (VHH, also called F0103464B09(L11V, R81Q, K83R, V89L)) VHH: EVQLVESGGGVVQPGGSLRLSCATTSRAFIRDVFTGWYRRVPGKERELVARIYNGGNTNYADFAKGRFSISRDNAKKMVTLQMSNLRPEDTGLYYCLFSGTINTGREYRSGDYWGQGTLVTVSS"
reported = 95

[[record]]
binder = "F010302347 (VHH) VHH: EVQLVESGGGVVQPGGSLRLSCAASHRAFIRDVFTGWYRQAPGKQRELVARIYEGGNTQYADSAKGRFTISRDNAKKTVYLQMNSLRPEDTALYYCLFSGTISTGREYRSGDYWGQGTLVTVSS"
reported = 100

[[record]]
binder = "F010301869 (VHH, also called F0103464B09(L11V, S68T, M77T, T79Y, R81Q, S82aN, N82bS, K83R, G88A, V89L)) VHH: EVQLVESGGGVVQPGGSLRLSCATTSRAFIRDVFTGWYRRVPGKERELVARIYNGGNTNYADFAKGRFTISRDNAKKTVYLQMNSLRPEDTALYYCLFSGTINTGREYRSGDYWGQGTLVTVSS"
reported = 100

[[record]]
binder = "F010301872 (VHH, also called F0103464B09(L11V, T25S, S68T, T79Y, R81Q, S82aN, N82bS, K83R, G88A, V89L)) VHH: EVQLVESGGGVVQPGGSLRLSCATSSRAFIRDVFTGWYRRVPGKERELVARIYNGGNTNYADFAKGRFTISRDNAKKMVYLQMNSLRPEDTALYYCLFSGTINTGREYRSGDYWGQGTLVTVSS"
reported = 100

